Measured values drawn from PubChem BioAssay AID2060620 for this set.

Test system: 328373-195-R-J1-PDC complex spheroids, viability % test/control
test.description: Anticancer human tumor 328373-195-R-J1-PDC patient-derived head and neck squamous carcinoma cell line growth inhibition [CLK]
test.settings: curve of first compound; second compound 1 µM
pIC50: −log10 of the molar value.
Readings of pIC50 for the listed molecules
quantity.measured: pIC50

# molecule, quantity.measured, result
records = [
    ("C=CC(=O)N1CCN(c2nc(=O)n(-c3c(C)ccnc3C(C)C)c3nc(-c4c(O)cccc4F)c(F)cc23)C(C)C1 (centres undefined) + CN1CCN(c2cc(C(=O)Nc3cc4cc(-c5cnn(C)c5)ccc4cn3)ccn2)CC1", "pIC50", "> 7.50"),
    ("CC1COCCN1c1cc(C2(S(C)(=N)=O)CC2)nc(-c2ccnc3[nH]ccc23)n1 (centres undefined) + CNC(=O)c1ccc(Nc2nc(OC3CCCC3)c3c(-c4ccc5nc(C)oc5c4)c[nH]c3n2)c(OC)c1", "pIC50", "> 7.50"),
    ("CCCS(=O)(=O)Nc1ccc(F)c(C(=O)c2c[nH]c3ncc(-c4ccc(Cl)cc4)cc23)c1F + CNC(=O)c1ccc(Nc2nc(OC3CCCC3)c3c(-c4ccc5nc(C)oc5c4)c[nH]c3n2)c(OC)c1", "pIC50", "> 7.50"),
    ("NC(=O)C(=Cn1cnc(-c2cc(C(F)(F)F)cc(C(F)(F)F)c2)n1)c1cncnc1 + CN1CCN(c2cc(C(=O)Nc3cc4cc(-c5cnn(C)c5)ccc4cn3)ccn2)CC1", "pIC50", "> 8.02"),
    ("CCc1c2c(nc3ccc(O)cc13)-c1cc3c(c(=O)n1C2)COC(=O)[C@]3(O)CC + CNC(=O)c1ccc(Nc2nc(OC3CCCC3)c3c(-c4ccc5nc(C)oc5c4)c[nH]c3n2)c(OC)c1", "pIC50", "> 8.50"),
    ("CC(=O)O[C@H]1C(=O)[C@@]2(C)[C@H]([C@H](OC(=O)c3ccccc3)[C@]3(O)C[C@H](OC(=O)[C@H](O)[C@@H](NC(=O)c4ccccc4)c4ccccc4)C(C)=C1C3(C)C)[C@]1(OC(C)=O)CO[C@@H]1C[C@@H]2O + CNC(=O)c1ccc(Nc2nc(OC3CCCC3)c3c(-c4ccc5nc(C)oc5c4)c[nH]c3n2)c(OC)c1", "pIC50", "> 7.50"),
    ("Nc1ccccc1NC(=O)c1ccc(CNC(=O)OCc2cccnc2)cc1 + CN1CCN(c2cc(C(=O)Nc3cc4cc(-c5cnn(C)c5)ccc4cn3)ccn2)CC1", "pIC50", "> 7.50"),
    ("O=C(c1cc(Cc2n[nH]c(=O)c3ccccc23)ccc1F)N1CCN(C(=O)C2CC2)CC1 + CNC(=O)c1ccc(Nc2nc(OC3CCCC3)c3c(-c4ccc5nc(C)oc5c4)c[nH]c3n2)c(OC)c1", "pIC50", "> 7.50"),
    ("CC1(C)CCC(CN2CCN(c3ccc(C(=O)NS(=O)(=O)c4ccc(NCC5CCOCC5)c([N+](=O)[O-])c4)c(Oc4cnc5[nH]ccc5c4)c3)CC2)=C(c2ccc(Cl)cc2)C1 + CNC(=O)c1ccc(Nc2nc(OC3CCCC3)c3c(-c4ccc5nc(C)oc5c4)c[nH]c3n2)c(OC)c1", "pIC50", "> 7.50"),
]

----------
System: 328373-195-R-J1-PDC complex spheroids, viability % test/control
test.description: Anticancer human tumor 328373-195-R-J1-PDC cell line growth inhibition [CLK]; active means viability on the fitted dose curve at most 10% of control; inactive means the rest;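 further: spheroids exposed to the agents for 7 days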
test.settings: second compound 0.0316 µM; first compound 0.1 µM
Classes used: true (active), false (inactive)

# compound, system.under.test, class
measured = [
    ("C=C(F)C(=O)N1CCN(c2nc(OCC3CCCN3C)nc3c2CCN(c2cccc4cccc(Cl)c24)C3)CC1CC#N (configuration not stated) + CN1CCN(c2cc(C(=O)Nc3cc4cc(-c5cnn(C)c5)ccc4cn3)ccn2)CC1", "328373-195-R-J1-PDC complex spheroids, viability % test/control", "false"),
    ("CC(Nc1ccc2c(c1)OCCn1cc(N3C(=O)OCC3C(F)F)nc1-2)C(N)=O (configuration not stated) + CN1CCN(c2cc(C(=O)Nc3cc4cc(-c5cnn(C)c5)ccc4cn3)ccn2)CC1", "328373-195-R-J1-PDC complex spheroids, viability % test/control", "false"),
    ("COc1cccc2c1C(=O)c1c(O)c3c(c(O)c1C2=O)CC(O)(C(=O)CO)CC3OC1CC(N)C(O)C(C)O1 (configuration not stated) + CN1CCN(c2cc(C(=O)Nc3cc4cc(-c5cnn(C)c5)ccc4cn3)ccn2)CC1", "328373-195-R-J1-PDC complex spheroids, viability % test/control", "true"),
    ("CC1COCCN1c1cc(C2(S(C)(=N)=O)CC2)nc(-c2ccnc3[nH]ccc23)n1 (configuration not stated) + CN1CCN(c2cc(C(=O)Nc3cc4cc(-c5cnn(C)c5)ccc4cn3)ccn2)CC1", "328373-195-R-J1-PDC complex spheroids, viability % test/control", "false"),
    ("CCN1CCN(Cc2ccc(Nc3ncc(F)c(-c4cc(F)c5nc(C)n(C(C)C)c5c4)n3)nc2)CC1 + CNC(=O)c1ccc(Nc2nc(OC3CCCC3)c3c(-c4ccc5nc(C)oc5c4)c[nH]c3n2)c(OC)c1", "328373-195-R-J1-PDC complex spheroids, viability % test/control", "false"),
    ("CCCS(=O)(=O)Nc1ccc(F)c(C(=O)c2c[nH]c3ncc(-c4ccc(Cl)cc4)cc23)c1F + CNC(=O)c1ccc(Nc2nc(OC3CCCC3)c3c(-c4ccc5nc(C)oc5c4)c[nH]c3n2)c(OC)c1", "328373-195-R-J1-PDC complex spheroids, viability % test/control", "false"),
    ("CCc1c2c(nc3ccc(O)cc13)-c1cc3c(c(=O)n1C2)COC(=O)[C@]3(O)CC + CN1CCN(c2cc(C(=O)Nc3cc4cc(-c5cnn(C)c5)ccc4cn3)ccn2)CC1", "328373-195-R-J1-PDC complex spheroids, viability % test/control", "true"),
    ("Nc1ccccc1NC(=O)c1ccc(CNC(=O)OCc2cccnc2)cc1 + CNC(=O)c1ccc(Nc2nc(OC3CCCC3)c3c(-c4ccc5nc(C)oc5c4)c[nH]c3n2)c(OC)c1", "328373-195-R-J1-PDC complex spheroids, viability % test/control", "false"),
    ("Cn1ncnc1[C@H]1c2n[nH]c(=O)c3cc(F)cc(c23)N[C@@H]1c1ccc(F)cc1 + CNC(=O)c1ccc(Nc2nc(OC3CCCC3)c3c(-c4ccc5nc(C)oc5c4)c[nH]c3n2)c(OC)c1", "328373-195-R-J1-PDC complex spheroids, viability % test/control", "false"),
    ("COC1C=CCC(C)C(C)S(=O)(=O)NC(=O)c2ccc3c(c2)N(CC2CCC21)CC1(CCCc2cc(Cl)ccc21)CO3 (configuration not stated) + CNC(=O)c1ccc(Nc2nc(OC3CCCC3)c3c(-c4ccc5nc(C)oc5c4)c[nH]c3n2)c(OC)c1", "328373-195-R-J1-PDC complex spheroids, viability % test/control", "false"),
    ("CC1(C)CCC(CN2CCN(c3ccc(C(=O)NS(=O)(=O)c4ccc(NCC5CCOCC5)c([N+](=O)[O-])c4)c(Oc4cnc5[nH]ccc5c4)c3)CC2)=C(c2ccc(Cl)cc2)C1 + CNC(=O)c1ccc(Nc2nc(OC3CCCC3)c3c(-c4ccc5nc(C)oc5c4)c[nH]c3n2)c(OC)c1", "328373-195-R-J1-PDC complex spheroids, viability % test/control", "false"),
    ("CC(CO)NC(=O)c1cc(-c2ccc(Cl)cc2)nn(-c2cnn(C)c2)c1=O (configuration not stated) + CN1CCN(c2cc(C(=O)Nc3cc4cc(-c5cnn(C)c5)ccc4cn3)ccn2)CC1", "328373-195-R-J1-PDC complex spheroids, viability % test/control", "false"),
    ("O=C(c1cc(Cc2n[nH]c(=O)c3ccccc23)ccc1F)N1CCN(C(=O)C2CC2)CC1 + CN1CCN(c2cc(C(=O)Nc3cc4cc(-c5cnn(C)c5)ccc4cn3)ccn2)CC1", "328373-195-R-J1-PDC complex spheroids, viability % test/control", "false"),
    ("Nc1ccccc1NC(=O)c1ccc(CNC(=O)OCc2cccnc2)cc1 + CN1CCN(c2cc(C(=O)Nc3cc4cc(-c5cnn(C)c5)ccc4cn3)ccn2)CC1", "328373-195-R-J1-PDC complex spheroids, viability % test/control", "false"),
    ("O=C(c1cc(Cc2n[nH]c(=O)c3ccccc23)ccc1F)N1CCN(C(=O)C2CC2)CC1 + CNC(=O)c1ccc(Nc2nc(OC3CCCC3)c3c(-c4ccc5nc(C)oc5c4)c[nH]c3n2)c(OC)c1", "328373-195-R-J1-PDC complex spheroids, viability % test/control", "false"),
    ("COc1c(OCCCN2CCOCC2)ccc2c3n(c(=NC(=O)c4cnc(N)nc4)nc12)CCN3 + CN1CCN(c2cc(C(=O)Nc3cc4cc(-c5cnn(C)c5)ccc4cn3)ccn2)CC1", "328373-195-R-J1-PDC complex spheroids, viability % test/control", "false"),
    ("COc1cccc2c1C(=O)c1c(O)c3c(c(O)c1C2=O)CC(O)(C(=O)CO)CC3OC1CC(N)C(O)C(C)O1 (configuration not stated) + CNC(=O)c1ccc(Nc2nc(OC3CCCC3)c3c(-c4ccc5nc(C)oc5c4)c[nH]c3n2)c(OC)c1", "328373-195-R-J1-PDC complex spheroids, viability % test/control", "true"),
]
